The entries below are paired with their reported protein stability index.
B1: STX11 (parent)
chain: FQRAMHDYNQAEMKQRDNCKIRIQ

# Variants of: B1
# TEST_DESCRIPTION: protein stability index of a GFP-peptide fusion (GPS, HEK-293T) (PSI 1-6); higher = more stable;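 further: lentivirally expressed fusions sorted by FACS into six bins by GFP to DsRed ratio, PSI derived from sequencing read proportions per bin multiplied by bin number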
# REPORTED_CONDITIONS: c terminus: a fixed tail appended
ATTRIBUTE_MEASURED: protein stability index

> print(dat)
    mutation.descriptor  observed.value
 1                  D7F            1.17
 2                  Q2A               2
 3                 R16P            2.87
 4                  M5L            3.18
 5                  R3E            3.99
 6                 Q15F            2.01
 7                 A11V            2.79
 8                  F1N             4.4
 9                 M13R             2.1
10                  N9V               2
11                  D7C            1.71
12                 R22P            3.02
13                 D17F            1.16
14                 R22S            3.44
15                 I21L            2.29
16                 A11H            2.58
17                 R16K            2.81
18                  M5R            2.78
19                  Q2G            3.82
20                  A4F            2.86
21                 Q24N            2.95
22                  R3C            1.65
23                  Q2V            2.55
24                 K14V            2.48
25                 Q24G            2.75
26                 Q10W            1.73
27                 D17A            2.28
28                 M13Q            2.62
29                  Y8P            3.32
30                  M5S            2.63
31                  H6R            2.16
32                 C19G            3.06
33                  R3Q            3.28
34                  Q2S            3.41
